For each record, write down the corresponding relative viability.
- Test system: NCI-H1703
- assay_text: relative viability (nuclei count vs DMSO), 5 days (fraction); higher = more cells survive
- setup_conditions: first compound 0.02 µM

Qu. Find the recorded relative viability belonging to CC(=O)O[C@@]12CO[C@@H]1C[C@H](O)[C@@]1(C)C(=O)[C@H](O)C3=C(C)[C@@H](OC(=O)[C@H](O)[C@@H](NC(=O)OC(C)(C)C)c4ccccc4)C[C@@](O)([C@@H](OC(=O)c4ccccc4)[C@H]21)C3(C)C [Docetaxel] + C[C@@H](Oc1cc(-c2cnn(C3CCNCC3)c2)cnc1N)c1c(Cl)ccc(F)c1Cl [Crizotinib] (partner 1 µM) and report it.
Ans. 0.133

Qu. Find the recorded relative viability belonging to CC(=O)O[C@@]12CO[C@@H]1C[C@H](O)[C@@]1(C)C(=O)[C@H](O)C3=C(C)[C@@H](OC(=O)[C@H](O)[C@@H](NC(=O)OC(C)(C)C)c4ccccc4)C[C@@](O)([C@@H](OC(=O)c4ccccc4)[C@H]21)C3(C)C [Docetaxel] + COc1cc2c(Oc3ccc(NC(=O)C4(C(=O)Nc5ccc(F)cc5)CC4)cc3F)ccnc2cc1OCCCN1CCOCC1 [Foretinib] (partner 0.25 µM) and report it.
Ans. 0.154

Qu. Find the recorded relative viability belonging to CC(=O)O[C@@]12CO[C@@H]1C[C@H](O)[C@@]1(C)C(=O)[C@H](O)C3=C(C)[C@@H](OC(=O)[C@H](O)[C@@H](NC(=O)OC(C)(C)C)c4ccccc4)C[C@@](O)([C@@H](OC(=O)c4ccccc4)[C@H]21)C3(C)C [Docetaxel] + CS(=O)(=O)CCNCc1ccc(-c2ccc3ncnc(Nc4ccc(OCc5cccc(F)c5)c(Cl)c4)c3c2)o1 [Lapatinib] (partner 2 µM) and report it.
Ans. 0.148

Qu. Find the recorded relative viability belonging to CC(=O)O[C@@]12CO[C@@H]1C[C@H](O)[C@@]1(C)C(=O)[C@H](O)C3=C(C)[C@@H](OC(=O)[C@H](O)[C@@H](NC(=O)OC(C)(C)C)c4ccccc4)C[C@@](O)([C@@H](OC(=O)c4ccccc4)[C@H]21)C3(C)C [Docetaxel] + CC(C)C[C@H](NC(=O)[C@H](Cc1ccccc1)NC(=O)c1cnccn1)B(O)O [Bortezomib] (partner 0.002 µM) and report it.
Ans. 0.0944

Qu. Find the recorded relative viability belonging to CC(=O)O[C@@]12CO[C@@H]1C[C@H](O)[C@@]1(C)C(=O)[C@H](O)C3=C(C)[C@@H](OC(=O)[C@H](O)[C@@H](NC(=O)OC(C)(C)C)c4ccccc4)C[C@@](O)([C@@H](OC(=O)c4ccccc4)[C@H]21)C3(C)C [Docetaxel] + C[C@]1(O)C[C@@H](c2nc(-c3ccc4ccc(-c5ccccc5)nc4c3)c3c(N)nccn32)C1 [Linsitinib] (partner 1 µM) and report it.
Ans. 0.101

----------
For each record, write down the corresponding relative viability.
- System: HCC-366
- assay_text: relative viability (nuclei count vs DMSO), 5 days (fraction); higher = more cells survive
- setup_conditions: first compound 0.05 µM

Qu. Find the recorded relative viability belonging to COc1cc2nccc(Oc3ccc(NC(=O)Nc4cc(C)on4)c(Cl)c3)c2cc1OC [Tivozanib] + O=C(CCCCCCC(=O)Nc1ccccc1)NO [Vorinostat] (partner 1 µM) and report it.
Ans. 0.312

Qu. Find the recorded relative viability belonging to COc1cc2nccc(Oc3ccc(NC(=O)Nc4cc(C)on4)c(Cl)c3)c2cc1OC [Tivozanib] + CS(=O)(=O)N1CCN(Cc2cc3nc(-c4cccc5[nH]ncc45)nc(N4CCOCC4)c3s2)CC1 [Pictilisib] (partner 1 µM) and report it.
Ans. 0.103

Qu. Find the recorded relative viability belonging to Nc1ccn([C@@H]2O[C@H](CO)[C@@H](O)[C@@H]2O)c(=O)n1 [Cytarabine] + CC(=O)c1c(C)c2cnc(Nc3ccc(N4CCNCC4)cn3)nc2n(C2CCCC2)c1=O [Palbociclib] (partner 0.5 µM) and report it.
Ans. 0.245

Qu. Find the recorded relative viability belonging to Nc1ccn([C@@H]2O[C@H](CO)[C@@H](O)[C@@H]2O)c(=O)n1 [Cytarabine] + O=C(CCCCCCC(=O)Nc1ccccc1)NO [Vorinostat] (partner 1 µM) and report it.
Ans. 0.301

----------
For each record, write down the corresponding relative viability.
- Test system: NCI-H1975
- assay_text: relative viability (nuclei count vs DMSO), 5 days (fraction); higher = more cells survive
- setup_conditions: first compound 0.002 µM

Qu. API: value(readout=relative viability, system=NCI-H1975) for record CC(=O)O[C@@]12CO[C@@H]1C[C@H](O)[C@@]1(C)C(=O)[C@H](O)C3=C(C)[C@@H](OC(=O)[C@H](O)[C@@H](NC(=O)OC(C)(C)C)c4ccccc4)C[C@@](O)([C@@H](OC(=O)c4ccccc4)[C@H]21)C3(C)C [Docetaxel] + Cc1nc(Nc2ncc(C(=O)Nc3c(C)cccc3Cl)s2)cc(N2CCN(CCO)CC2)n1 [Dasatinib] (partner 0.075 µM)
Ans. 0.152

Qu. API: value(readout=relative viability, system=NCI-H1975) for record CC(=O)O[C@@]12CO[C@@H]1C[C@H](O)[C@@]1(C)C(=O)[C@H](O)C3=C(C)[C@@H](OC(=O)[C@H](O)[C@@H](NC(=O)OC(C)(C)C)c4ccccc4)C[C@@](O)([C@@H](OC(=O)c4ccccc4)[C@H]21)C3(C)C [Docetaxel] + CS(=O)(=O)CCNCc1ccc(-c2ccc3ncnc(Nc4ccc(OCc5cccc(F)c5)c(Cl)c4)c3c2)o1 [Lapatinib] (partner 2 µM)
Ans. 0.268

----------
- System: LU99A
- assay_text: relative viability (nuclei count vs DMSO), 5 days (fraction); higher = more cells survive
- setup_conditions: first compound 15.81 µM
For each record, write down the corresponding relative viability.
// print number alone

Qu. Find the recorded relative viability belonging to O=C(O)CCCCC(CCSCc1ccccc1)SCc1ccccc1 (stereo not drawn) [CPI-613] + C[C@@H](Oc1cc(-c2cnn(C3CCNCC3)c2)cnc1N)c1c(Cl)ccc(F)c1Cl [Crizotinib] (partner 1 µM) and report it.
Ans. 0.546

Qu. Find the recorded relative viability belonging to O=C(O)CCCCC(CCSCc1ccccc1)SCc1ccccc1 (stereo not drawn) [CPI-613] + COc1cccc2cc(-c3nc([C@H]4CC[C@H](C(=O)O)CC4)n4ncnc(N)c34)[nH]c12 [OSI-027] (partner 0.5 µM) and report it.
Ans. 0.279

Qu. Find the recorded relative viability belonging to O=C(O)CCCCC(CCSCc1ccccc1)SCc1ccccc1 (stereo not drawn) [CPI-613] + Cc1nc(NC(=O)N2CCC[C@H]2C(N)=O)sc1-c1ccnc(C(C)(C)C(F)(F)F)c1 [Alpelisib] (partner 2 µM) and report it.
Ans. 0.51

----------
For each record, write down the corresponding relative viability.
- System: LK-2
- assay_text: relative viability (nuclei count vs DMSO), 5 days (fraction); higher = more cells survive
- setup_conditions: first compound 0.0002 µM
// print number alone

Qu. Find the recorded relative viability belonging to CC(=O)O[C@@]12CO[C@@H]1C[C@H](O)[C@@]1(C)C(=O)[C@H](O)C3=C(C)[C@@H](OC(=O)[C@H](O)[C@@H](NC(=O)OC(C)(C)C)c4ccccc4)C[C@@](O)([C@@H](OC(=O)c4ccccc4)[C@H]21)C3(C)C [Docetaxel] + O=C(c1cc(Cc2n[nH]c(=O)c3ccccc23)ccc1F)N1CCN(C(=O)C2CC2)CC1 [Olaparib] (partner 8 µM) and report it.
Ans. 0.599

Qu. Find the recorded relative viability belonging to CC(=O)O[C@@]12CO[C@@H]1C[C@H](O)[C@@]1(C)C(=O)[C@H](O)C3=C(C)[C@@H](OC(=O)[C@H](O)[C@@H](NC(=O)OC(C)(C)C)c4ccccc4)C[C@@](O)([C@@H](OC(=O)c4ccccc4)[C@H]21)C3(C)C [Docetaxel] + NC(=O)Nc1cc(-c2cccc(F)c2)sc1C(=O)N[C@H]1CCCNC1 [AZD7762] (partner 0.2 µM) and report it.
Ans. 0.337

Qu. Find the recorded relative viability belonging to CC(=O)O[C@@]12CO[C@@H]1C[C@H](O)[C@@]1(C)C(=O)[C@H](O)C3=C(C)[C@@H](OC(=O)[C@H](O)[C@@H](NC(=O)OC(C)(C)C)c4ccccc4)C[C@@](O)([C@@H](OC(=O)c4ccccc4)[C@H]21)C3(C)C [Docetaxel] + CC(=O)c1c(C)c2cnc(Nc3ccc(N4CCNCC4)cn3)nc2n(C2CCCC2)c1=O [Palbociclib] (partner 0.5 µM) and report it.
Ans. 0.507

Qu. Find the recorded relative viability belonging to CC(=O)O[C@@]12CO[C@@H]1C[C@H](O)[C@@]1(C)C(=O)[C@H](O)C3=C(C)[C@@H](OC(=O)[C@H](O)[C@@H](NC(=O)OC(C)(C)C)c4ccccc4)C[C@@](O)([C@@H](OC(=O)c4ccccc4)[C@H]21)C3(C)C [Docetaxel] + Nc1ncn([C@H]2C[C@H](O)[C@@H](CO)O2)c(=O)n1 [Decitabine] (partner 2 µM) and report it.
Ans. 0.348

Qu. Find the recorded relative viability belonging to CC(=O)O[C@@]12CO[C@@H]1C[C@H](O)[C@@]1(C)C(=O)[C@H](O)C3=C(C)[C@@H](OC(=O)[C@H](O)[C@@H](NC(=O)OC(C)(C)C)c4ccccc4)C[C@@](O)([C@@H](OC(=O)c4ccccc4)[C@H]21)C3(C)C [Docetaxel] + C[C@]1(O)C[C@@H](c2nc(-c3ccc4ccc(-c5ccccc5)nc4c3)c3c(N)nccn32)C1 [Linsitinib] (partner 1 µM) and report it.
Ans. 0.534

Qu. Find the recorded relative viability belonging to CC(=O)O[C@@]12CO[C@@H]1C[C@H](O)[C@@]1(C)C(=O)[C@H](O)C3=C(C)[C@@H](OC(=O)[C@H](O)[C@@H](NC(=O)OC(C)(C)C)c4ccccc4)C[C@@](O)([C@@H](OC(=O)c4ccccc4)[C@H]21)C3(C)C [Docetaxel] + CS(=O)(=O)CCNCc1ccc(-c2ccc3ncnc(Nc4ccc(OCc5cccc(F)c5)c(Cl)c4)c3c2)o1 [Lapatinib] (partner 2 µM) and report it.
Ans. 0.843
